- Test system: OVCAR-5 ovarian
- test-description: NCI tumour cell line growth inhibition, 48 h
So basically: TGI at 30 µM or higher? That is yes (1). Lower than 30 µM? That is no (0).

[
  {
    "compound": "COc1cc(OC)cc(C(=O)Cc2c(C(=O)c3ccccc3)c3ccccc3n2C(=O)c2ccccc2)c1",
    "group": "yes (1)"
  },
  {
    "compound": "C(#C[C@@]12CCC[C@@H]1N(Cc1ccccc1)CO2)c1ccc2c(c1)OCO2",
    "group": "yes (1)"
  },
  {
    "compound": "Cc1ccc2c(=O)c(C(=O)NNC(=S)NC3CCCCC3)c[nH]c2n1",
    "group": "yes (1)"
  },
  {
    "compound": "CN=C(N)NC",
    "group": "yes (1)"
  },
  {
    "compound": "C=C(C)C1CC2=C(O1)C(=O)c1cccc(O)c1C2=O (stereo not given)",
    "group": "no (0)"
  }
]

hey, is TGI for this one >= 30 µM? CCOc1cc(/C=C2\N=C(c3ccccc3)N(c3nc4ccccc4s3)C2=O)ccc1O
yes (1)

State whether the measured TGI reaches 30 µM, counting equality as reaching it, for COc1ccc(NS(=O)(=O)c2ccc(N=C3C=C(Nc4ccc(S(=O)(=O)Nc5ccc(OC)nn5)cc4)C(=O)c4ccccc43)cc2)nn1
yes (1)

Hi team, for CCCCSC1=N/C(=C\c2ccc(N(C)C)cc2)C(Cl)=N1 , is the recorded TGI at or above 30 µM?
yes (1)

---

- System: SN12C renal
- test-description: NCI tumour cell line growth inhibition, 48 h; in the data active means GI50 below about 0.43 µM; inactive means the rest
The categories you may choose from are active, inactive

Use the examples below as a reference point.
[
  {
    "compound": "N#Cc1ccc(NC(=O)Nc2nc3ccc(OC(F)(F)F)cc3s2)cc1",
    "group": "inactive"
  },
  {
    "compound": "Cc1ccccc1C[P+](c1ccccc1)(c1ccccc1)c1ccccc1",
    "group": "inactive"
  },
  {
    "compound": "Clc1ccc(COC(Cn2ccnc2)c2ccc(Cl)cc2Cl)c(Cl)c1 (centres undefined)",
    "group": "inactive"
  }
]

Name the outcome recorded for Cc1nc2ccccc2c(/C=C/c2ccccc2)c1C(=O)/C=C/c1ccccc1 in the assay.
inactive

Just curious, what result did CCCCCCC(O)C(O)CCC(O)C1CCC(CCCCC(O)CC2=CC(C)OC2=O)O1 (centres undefined) get here?
inactive

What call does the record list for Cc1cc(C)c(O)c(CNCCCNCc2cc(C)cc(C)c2O)c1 ?
inactive

Per the records of this test, what outcome belongs to COC(=O)CCCNC(=O)C(=O)c1c(O)c(O)c(C(C)C)c2cc(C)c(-c3c(C)cc4c(C(C)C)c(O)c(O)c(C(=O)C(=O)NCCCC(=O)OC)c4c3O)c(O)c12 ?
inactive

Which result was noted for this compound in the test: COc1ccc(C(=O)c2cc(C)c(OC)c(C)c2)c(OC)c1N(C(=O)CCl)C(=O)CCl
active

How was CC(C)=CCc1c(O)c(C(=O)CC(C)C)c(O)c2c(-c3ccccc3)cc(=O)oc12 classified in this test?
inactive

---

- Tested on: SK-MEL-5 melanoma
- test-description: NCI tumour cell line growth inhibition, 48 h
experimental-readout: TGI

The following molecules have reported results that may help.
[
  {
    "molecule": "NC(Cc1c[nH]c2cc(F)ccc12)C(=O)O (stereo unspecified)",
    "observed-result": "1140 µM"
  },
  {
    "molecule": "Clc1nc(Nc2nc3ccccc3[nH]2)nc(Cl)c1-c1ccccc1",
    "observed-result": "53.5 µM"
  },
  {
    "molecule": "COc1ccc(C[C@H]2NC[C@H](O)[C@H]2OC(C)=O)cc1",
    "observed-result": "0.0585 µM"
  },
  {
    "molecule": "Cc1c(C#N)c(N)n(C2OC(CO)C(O)C(O)C2O)c(=S)c1C#N (stereo unspecified)",
    "observed-result": "> 100 µM"
  },
  {
    "molecule": "CCOC(=O)c1csc(-c2nc(CCNC(=O)c3ccccc3)sc2Cl)n1",
    "observed-result": "> 100 µM"
  }
]

# return recorded TGI for input COc1ncc(C#CC(=O)c2ccccc2)c(OC)n1
6.68 µM

---

- Test system: SK-OV-3 ovarian
- test-description: NCI tumour cell line growth inhibition, 48 h
Mark not satisfied for TGI values under 30 µM, and satisfied for everything at or above.

Example cases with answers are listed next.
[
  {
    "molecule": "O=C(O)CNC(=O)C1NC(C(F)(F)F)(C(F)(F)F)OC1(C(F)(F)F)C(F)(F)F (centres undefined)",
    "target-system": "SK-OV-3 ovarian",
    "group": "satisfied"
  },
  {
    "molecule": "O=C(Nc1ccc(N2CCNCC2)cn1)c1[nH]ncc1Nc1ncnc2sccc12",
    "target-system": "SK-OV-3 ovarian",
    "group": "not satisfied"
  },
  {
    "molecule": "COC(=O)c1ccc(/C=C/S(=O)(=O)c2ccccc2)cc1",
    "target-system": "SK-OV-3 ovarian",
    "group": "satisfied"
  }
]

Dear colleague, could you confirm whether CCCCCCCCCCCCC(NC(C)=O)(C(=O)OCC)C(=O)OCC has TGI at or above 30 µM?
not satisfied

Dear colleague, could you confirm whether Nc1nc(Cl)c(C=O)c(NCC2(CO)CCC2)n1 has TGI at or above 30 µM?
satisfied

Hello, I need to know if CCOc1cc(/C=C2\N=C(c3ccccc3)N(c3nc4ccccc4s3)C2=O)ccc1O has measured TGI not below 30 µM. Thanks!
satisfied

Decide: is the reported value of TGI for C(#C[C@@]12CCC[C@@H]1N(Cc1ccccc1)CO2)c1ccc2c(c1)OCO2 equal to or greater than 30 µM?
satisfied

Can C[C@H]1[C@H](C)CC[C@]2(C(=O)OC3OC(CO)C(O)C(O)C3O)CC[C@]3(C)C(=CC[C@@H]4[C@@]5(C)C[C@@H](O)[C@@H]6OC(=O)c7cc(O)c(O)c(O)c7-c7c(cc(O)c(O)c7O)C(=O)OC[C@]6(CO)[C@@H]5CC[C@]43C)[C@H]12 (some centres undefined) be said to have TGI at or above 30 µM?
satisfied

---

- System: SF-268 CNS
- test-description: NCI tumour cell line growth inhibition, 48 h; in the data active = GI50 below about 0.43 µM; inactive = the rest
# valid calls are active, inactive; nothing else

Before answering, review these 5 worked examples.
[
  {
    "molecule": "O=C(Nc1ccc(-n2ccc3c(NC(=O)c4ccccc4)nccc32)cc1)c1ccc(N2CCOCC2)c(C(F)(F)F)c1",
    "group": "active"
  },
  {
    "molecule": "C#CCN(Cc1nc2cc(C(F)(F)F)ccc2nc1-c1ccccc1)c1ccc(F)cc1",
    "group": "inactive"
  },
  {
    "molecule": "COc1c(Cl)[c]([Hg][O]C(C)=O)c(NCC(C)=O)c(OC)[c]1[Hg][O]C(C)=O",
    "group": "inactive"
  },
  {
    "molecule": "COC(=O)[C@H](Cc1cn(C)cn1)NC(=O)[C@@H](NC(=O)Nc1cc(C(F)(F)F)cc(C(F)(F)F)c1)C(C)(C)C",
    "group": "inactive"
  },
  {
    "molecule": "CCN(CC)CCOc1ccc(Cc2ccccc2)cc1",
    "group": "inactive"
  }
]

Lab log entry: CSC1SCC2C(=O)N(C)C(C(C)C)C(=O)OCC(NC(=O)c3cnc4ccccc4n3)C(=O)NC(C)C(=O)N(C)C1C(=O)N(C)C(C(C)C)C(=O)OCC(NC(=O)c1cnc3ccccc3n1)C(=O)NC(C)C(=O)N2C (centres undefined) — outcome as called in the assay?
active

Fill in: this test's call for COc1ccc(-c2cc(-c3ccc(Cl)cc3)nc(SCCCCCCC(=O)NO)n2)cc1 is ___
inactive

Recorded call for CCCCCCCCCC[N+](C)(C)C ?
inactive

Call for entry C=C1C(=O)O[C@H]2[C@H]1CC/C(Cn1cc(-c3ccsc3)nn1)=C\CC[C@@]1(C)O[C@@H]21 :
inactive

---

Hi there, I'd appreciate the recorded GI50 for every entry that follows.
- Tested on: ACHN renal
- test-description: NCI tumour cell line growth inhibition, 48 h

[
  {
    "molecule": "COc1cccc(NC(=O)c2ccc(NC3=C(Cl)C(=O)N(Cc4ccccc4)C3=O)cc2)c1",
    "GI50": "6.22 µM"
  },
  {
    "molecule": "CCCC(=O)Nc1c(I)cc(I)c(CC(CC)C(=O)O)c1I (stereo unspecified)",
    "GI50": "> 100 µM"
  },
  {
    "molecule": "CCCc1n(Cc2ccc3ccccc3n2)cc[n+]1Cc1ccc2ccccc2c1",
    "GI50": "4.08 µM"
  },
  {
    "molecule": "COc1c(N2CCN(CN3C(=O)C(=O)c4ccccc43)C(C)C2)c(F)cc2c(=O)c(C(=O)O)cn(C3CC3)c12 (stereo unspecified)",
    "GI50": "> 100 µM"
  },
  {
    "molecule": "Cc1ccc(-n2c3c(c4c(CN)c(O)ccc42)CCc2ccccc2C3=O)cc1",
    "GI50": "16.7 µM"
  }
]

Please give measured GI50 of the following entry: C#CCN(Cc1nc2cc(C(F)(F)F)ccc2nc1-c1ccccc1)c1ccc(F)cc1
36 µM

This collection of values is drawn from PubChem BioAssay (NCI).
